Tested on: SW-620 colon
Assay: NCI tumour cell line growth inhibition, 48 h; in the data active = GI50 below about 0.43 µM; inactive = the rest
// classify into yes (active), no (inactive)

Illustrative cases are given below, each with its answer.
O=c1oc2ccc(Cl)cc2c(=O)n1-c1ccc(I)cc1F | yes
CCN1C(=O)N(CC)C2C1NN=c1s/c(=C3\C(=O)N(C)c4ccccc43)c(=O)n12 (stereo not given) | no
Cc1ccc2c(c1)ncn2-c1ncnc2c1CC(C)c1ccccc1N2C (stereo not given) | yes

State the result this test recorded for Fc1ccc(Nc2nc(NCCNc3ccnc4cc(Cl)ccc34)nc(N3CCOCC3)n2)cc1 .
no

For CC(=O)OC1C2(CC3N4C(=O)C5(CO)SSC4(CC31O)C(=O)N5C)OC(C)C(C)(C)C2=O (stereo not given) then?
yes
